- test details: in vitro
- experimental conditions: human, hek293t cells
quantity measured: viability at 48 h, 25 µM (%)
Kindly answer with a numeric value in %, unit omitted.

Query :: Request the reported viability at 48 h, 25 µM associated with C=CC(=O)N1CCC(C(=O)NC2(c3ccc(F)cc3F)CCC2)CC1
Result :: 97.5

Query :: Request the reported viability at 48 h, 25 µM associated with Cc1noc(C)c1CC(=O)N1CCN(C(=O)C(C)Cl)CC1 (stereo not shown)
Result :: 106

Query :: Request the reported viability at 48 h, 25 µM associated with CCC1SC(=C(C#N)C(N)=O)N(c2ccc(C)cc2)C1=O (stereo not shown)
Result :: 117

Query :: Request the reported viability at 48 h, 25 µM associated with C=CC(=O)N1CCC(C(=O)NCc2nc(C)c(C)s2)CC1
Result :: 87.5

Query :: Request the reported viability at 48 h, 25 µM associated with CNC(=O)C(C#N)=Cc1cc(C)n(-c2cccc3ccccc23)c1C
Result :: 109

Query :: Request the reported viability at 48 h, 25 µM associated with O=C(CCl)NCCc1nc2ccccc2s1
Result :: 98

Query :: Request the reported viability at 48 h, 25 µM associated with COc1ccc(NC(=O)C(C#N)=Cc2c(Cl)nc3ccccn23)cc1
Result :: 121

Query :: Request the reported viability at 48 h, 25 µM associated with Cc1cc(NC(=O)CCl)n(-c2ccccc2)n1
Result :: 0.983

Query :: Request the reported viability at 48 h, 25 µM associated with C=CC(=O)N1CCOCC1CC(=O)c1ccco1 (stereo not shown)
Result :: 194

Query :: Request the reported viability at 48 h, 25 µM associated with N#CC(=Cc1cn(-c2ccccc2)nc1-c1ccc(Cl)cc1)C(N)=O
Result :: 125
